Data origin: ChEMBL document CHEMBL5150016

Target: Hepatic sodium/bile acid cotransporter (Homo sapiens, UniProt Q14973)
Sequence (Q14973 whole entry, the tested form may be a part): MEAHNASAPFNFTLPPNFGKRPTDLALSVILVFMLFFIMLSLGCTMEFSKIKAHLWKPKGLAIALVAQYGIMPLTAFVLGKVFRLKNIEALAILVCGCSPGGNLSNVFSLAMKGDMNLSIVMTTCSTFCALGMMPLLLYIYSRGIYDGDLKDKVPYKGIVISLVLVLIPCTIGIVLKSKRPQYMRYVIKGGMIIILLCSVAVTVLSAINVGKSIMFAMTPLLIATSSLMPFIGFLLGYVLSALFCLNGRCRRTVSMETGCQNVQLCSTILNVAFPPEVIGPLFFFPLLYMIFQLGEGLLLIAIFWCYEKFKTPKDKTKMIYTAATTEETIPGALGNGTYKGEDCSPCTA
Experiment: Inhibition of HBV subgenotype D3 [3H]-myr-preS1 (2 to 48 residues) peptide binding to human NTCP in HEK293 cells preincubated for 5 mins followed by substrate addition and measured after 10 mins using by microplate scintillation counter analysis
Assay type: cell-based
The entries below come with measured pIC50 values attached.
Scale: pIC50 equals -log10([C]), with [C] in mol/L.

Previously resolved entries follow.
C=C(C)[C@@H]1CC[C@]2(COC(C)=O)CC[C@]3(C)[C@H](CC[C@@H]4[C@@]5(C)CC[C@H](OC(C)=O)C(C)(C)[C@@H]5CC[C@]43C)[C@@H]12 [BETULIN DIACETATE]; 3.70
C=C(C)[C@@H]1CC[C@]2(CO)CC[C@]3(C)[C@H](CC[C@@H]4[C@@]5(C)CC[C@H](OC(=O)/C=C/c6ccc(O)c(O)c6)C(C)(C)[C@@H]5CC[C@]43C)[C@@H]12; 5.22

Please examine the following record next.
Problem: Which pIC50 value belongs to COc1ccc([C@H](O)[C@H](c2ccccn2)[C@@H](Nc2ccccn2)c2ccccc2)cc1 ?
Solution: 4.78
